Hello, the source for this data is PubChem BioAssay (EPA / NIEHS), in case you need it.

# Read-out: CD38, CD38 (gene 952)
# method.description: BSK_SAg_CD38: BioMAP Diversity Plus: SAg Assay for CD38 Biomarker Activity (AID 2283087)
# condition.notes: primary human HUVEC with PBMC; actives raise or lower the signal
The source made the active and inactive calls. How the source made its calls: active means hit-call score of the fitted dose curve at least 0.9, where 1 is the maximum; inactive means score below 0.9.
measurement.kind: AC50

Answered cases to consult:
CC/C(=C(/CC)c1ccc(O)cc1)c1ccc(O)cc1 ... 19 µM (active)
NC(=O)c1nc(-c2cccc(-c3cc(F)ccc3OCC(F)(F)C(F)(F)F)c2)n[nH]1 ... 29.5 µM (active)
CC(C)(O)c1ccc(CNC(=O)c2cccnc2Oc2ccc3nonc3c2)cc1 ... inactive
CCO[Si](CCCNC(N)=O)(OCC)OCC ... inactive

Moving on to another compound below.
Which AC50 is listed for COc1cc(C(=O)NC2CCN(C)CC2)ccc1Nc1ncc2c(n1)N(C1CCCC1)CC(F)(F)C(=O)N2C ?
11.6 µM (active)

###

# Read-out: Monocyte Chemoattractant Protein-1 (MCP1), CCL2 (gene 6347)
# method.description: BSK_CASM3C_MCP1: BioMAP Diversity Plus: CASM3C Assay for Monocyte Chemoattractant Protein-1 (MCP1) Biomarker Activity (AID 2283046);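 further: MCP-1 level quantified by ELISA 24 h after dosing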
# condition.notes: primary human coronary artery smooth muscle cells; actives raise or lower the signal
Activity calls are given as the source filed them. Rule for the calls: active = hit-call score of the fitted dose curve at least 0.9, where 1 is the maximum; inactive = score below 0.9.
Respond with a class label; see 1.0 for active, 0.0 for inactive

Please review the entries below; each comes with its answer.
Clc1ccccc1C(c1ccccc1)(c1ccccc1)n1ccnc1 ... 1.0
CCCCCCCCCC(=O)O ... 0.0
CC(C)(C)c1csc(-c2cc3cc(OCc4ccccc4CC(=O)O)ccc3o2)n1 ... 0.0
COc1ccc2cc(S(=O)(=O)N[C@H](CC(=O)N[C@H](Cc3ccc(CN4[C@H](C)CCC[C@@H]4C)cc3)C(=O)N(C)C(C)C)c3ccc4c(c3)OCO4)ccc2c1 ... 0.0
NC(=O)c1nc(-c2cccc(-c3cc(F)ccc3OCC(F)(F)C(F)(F)F)c2)n[nH]1 ... 0.0

// return assay outcome for CCCCCCCCCCCC[N+](C)(C)C
1.0

What did the test return for Cc1cc2c(cc1C(F)(F)F)N(C(=O)Nc1ccc(Oc3cccnc3C)nc1)CC2 ?
1.0

For CN1C(=O)CC[C@H]1c1cccnc1 , which call appears in the assay record?
0.0

###

# Read-out: Matrix Metallopeptidase 9 (MMP9), MMP9 (gene 4318)
# method.description: BSK_KF3CT_MMP9: BioMAP Diversity Plus: KF3CT Assay for Matrix Metallopeptidase 9 (MMP9) Biomarker Activity (AID 2283074)
# condition.notes: primary human keratinocytes with fibroblasts; actives raise or lower the signal
Calls of active or inactive are those of the source. The calls were made as follows: active = hit-call score of the fitted dose curve at least 0.9, where 1 is the maximum; inactive = score below 0.9.
Your response should consist of one outcome taken from true (1) for active, false (0) for inactive

CCN(Cc1cccnc1)C(=O)c1cccc(Cl)c1[C@]1(C)C(=O)N(Cc2ccc(OC)cc2OC)c2ccc(Cl)cc21 ... true (1)
CCCCOC(=O)CC(CC(=O)OCCCC)(OC(C)=O)C(=O)OCCCC ... false (0)
CC[C@@H]1C[C@H](N(Cc2cc(C(F)(F)F)cc(C(F)(F)F)c2)C(C)=O)c2cc(C(F)(F)F)ccc2N1C(=O)OC(C)C ... false (0)

What did this assay record as the result for Cc1ccc2oc(CN(Cc3ccccc3)C(=O)Nc3c(F)cc(F)cc3F)c(-c3ccc(Cl)cc3)c2c1 ?
false (0)

Dear all, I need the recorded test outcome for CN(C)C(=O)C1(N2CCCCC2)CCN(CC[C@@]2(c3ccc(Cl)c(Cl)c3)CN(C(=O)c3ccccc3)CCO2)CC1 , thank you.
true (1)

Please let me know the test result on file for Cc1occc1C(=O)Nc1ccc(C(=O)N2CCC(F)(F)/C(=C\C(=O)N3CCC(N4CCCCC4)CC3)c3ccccc32)cc1 .
false (0)

Just curious, what result did Cc1cn([C@H]2C[C@H](N=[N+]=[N-])[C@@H](CO)O2)c(=O)[nH]c1=O get here?
false (0)

Could you please tell me the result logged for O=C1CCC(C2CCCCC2)CC1 in this assay?
true (1)

Recorded test outcome, item Cc1cccc2ccccc12
false (0)

Assay result, entry CCOC(=O)O[C@H](C)OC(=O)c1ccc2c(c1)cc(C(=O)NC1CCN(C(C)C)CC1)n2Cc1cc(-c2ccc(Cl)s2)on1 — outcome?
true (1)

Status in this test for O=C1O[C@H]([C@@H](O)CO)C(O)=C1O ?
false (0)

Answer briefly: the call reported for c1ccc2ccccc2c1 in this assay.
false (0)

Hello, I am checking results. What call was entered for Oc1ccccc1 ?
false (0)
